- Test system: P388 leukemia ip, CD2F1 mice, survival T/C
- ASSAY_TEXT: NCI In Vivo Anticancer Drug Screen. Data for tumor model P388 Leukemia (intraperitoneal) in CD2F1 (CDF1) mice
- SETTINGS: endpoint: median survival time; dose: 50.0 mg/kg/injection; schedule: Q04DX003 (ip); vehicle: saline with Tween-80; higher = longer survival
Toxic doses and inconclusive results are not listed.
# T/C listing for each entry below

INSERT INTO measurements (molecule, result) VALUES
  ('COc1cc(C=Nc2ccc(Cl)cc2)ccc1N(CCCl)CCCl', '204 % of control'),
  ('COc1cccc2c1C(=O)c1c(O)c3c(c(O)c1C2=O)CC(O)(C(=O)COC1CC(OC(C)=O)C(OC(C)=O)C(C)O1)CC3OC1CC(OC(C)=O)C(OC(C)=O)C(C)O1 (stereo not drawn)', '100 % of control'),
  ('OCCOc1ccc2ccccc2c1-c1c(OCCO)ccc2ccccc12', '100 % of control'),
  ('CN(C)C(=O)Nc1cccc(OC(=O)Nc2ccccc2)c1', '101 % of control'),
  ('Cn1c(=O)c2[nH]c(CN(CCCl)CCCl)nc2n(C)c1=O', '218 % of control'),
  ('O=C(NC(Cc1ccccc1)C(=O)CCl)OCc1ccccc1 (stereo not drawn)', '111 % of control'),
  ('Cc1nc2c(ncn2C2OC(CO)C(O)C2O)c(=O)[nH]1 (stereo not drawn)', '96 % of control'),
  ('CC(=O)Nc1cccc([N+](=O)[O-])c1', '110 % of control');

Look up and report measured T/C for this entry: NC(=O)c1ccccc1NCCc1ccccc1
100 % of control

Please list T/C recorded for the molecule O=[N+]([O-])c1ccsc1SSc1sccc1[N+](=O)[O-]
102 % of control

Give T/C for C=C(C)CC1(CC)C(=O)NC(=S)NC1=O
104 % of control

Note T/C for the molecule shown: S=P(N1CCCCCC1)(N1CC1)N1CC1
154 % of control

Quickly give me recorded T/C for Cc1cc2c(C(C)C)c(O)c(O)cc2c(O)c1-c1c(C)cc2c(C(C)C)c(O)c(O)cc2c1O
104 % of control

Name the recorded T/C of the molecule listed here: CC1C(=O)c2cc3c(cc2CCN(C)Cc2c1ccc1c2OCO1)OCO3 (stereo not drawn)
104 % of control

For the molecule Oc1cc(O)c2c(c1)Oc1cc(O)cc(O)c1C2 , give its measured T/C value.
98 % of control
